assayed.system: UniProtKB P22455
Sequence (P22455 22-802): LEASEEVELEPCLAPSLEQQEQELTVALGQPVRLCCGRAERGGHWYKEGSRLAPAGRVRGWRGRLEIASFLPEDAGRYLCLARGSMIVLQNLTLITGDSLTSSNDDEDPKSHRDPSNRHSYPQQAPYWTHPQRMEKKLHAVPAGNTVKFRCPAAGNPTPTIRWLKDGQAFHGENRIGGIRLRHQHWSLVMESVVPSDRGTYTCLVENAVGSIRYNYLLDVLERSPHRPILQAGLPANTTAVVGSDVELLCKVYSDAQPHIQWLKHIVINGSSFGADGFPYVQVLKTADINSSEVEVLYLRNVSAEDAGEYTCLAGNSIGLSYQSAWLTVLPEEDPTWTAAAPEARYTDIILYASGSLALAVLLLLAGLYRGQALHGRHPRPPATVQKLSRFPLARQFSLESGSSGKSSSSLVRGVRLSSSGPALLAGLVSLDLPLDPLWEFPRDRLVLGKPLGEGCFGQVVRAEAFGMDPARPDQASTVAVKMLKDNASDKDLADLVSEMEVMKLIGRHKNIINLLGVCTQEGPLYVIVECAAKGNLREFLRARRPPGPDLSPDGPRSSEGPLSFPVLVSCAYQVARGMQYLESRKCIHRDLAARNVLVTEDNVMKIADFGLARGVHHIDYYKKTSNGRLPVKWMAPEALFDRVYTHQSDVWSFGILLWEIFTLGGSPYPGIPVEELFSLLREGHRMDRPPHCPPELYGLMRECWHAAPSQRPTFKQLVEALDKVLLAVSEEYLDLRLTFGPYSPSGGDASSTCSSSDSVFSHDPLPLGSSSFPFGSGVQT
quantity.kind: IC50 (nM)

// solved cases for IC50 follow
{"columns": ["compound", "IC50 / nM"],
 "data": [
  ["COC[C@@H](C)Oc1cc(NC(=O)N2CCCc3cc(CN4CC[C@H](OC)C4=O)c(C=O)nc32)ncc1C#N [Example 50]", 1.2],
  ["COCCSc1cc(NC(=O)N2CCCc3cc(CN(C)C(=O)[C@H]4CCCO4)c(C=O)nc32)ncc1C#N [Example 16]", 1.98]
]}

I. CO[C@@H]1CCN(c2cc(NC(=O)N3CCCc4cc(CN(C)C(=O)[C@H]5CCCO5)c(C=O)nc43)ncc2C#N)C1 [Example 18]
II. CO[C@H]1CCN(Cc2cc3c(nc2C=O)N(C(=O)Nc2cc(N[C@@H]4COC[C@H]4OC)c(C#N)cn2)CCC3)C1=O [Example 86]
Of I and II , whose reported IC50 is numerically smaller? Give the label of your selection.
II
(II: 1.34 nM, I: 4.2 nM)

P. COCCNc1cc(NC(=O)N2CCCc3cc(CN(C)C(=O)[C@H]4CCCN4C)c(C=O)nc32)ncc1C#N [Example 9]
Q. CCN1CCC[C@@H]1C(=O)N(C)Cc1cc2c(nc1C=O)N(C(=O)Nc1cc(NCCOC)c(C#N)cn1)CCC2 [Example 97]
Of P and Q , whose reported IC50 is numerically smaller? Give the label of your selection.
P
(P: 0.74 nM, Q: 1.47 nM)
